B1: TPR t1 (parent)
chain: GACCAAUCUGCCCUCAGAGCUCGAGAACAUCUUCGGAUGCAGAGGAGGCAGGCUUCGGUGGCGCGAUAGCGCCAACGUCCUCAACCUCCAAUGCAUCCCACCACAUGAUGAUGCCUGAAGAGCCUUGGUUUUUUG

variants of: B1; experiment: polymerase ribozyme fitness, log enrichment relative to wild type (log ratio); higher = more active; in vitro selection for triplet polymerase activity
Catalogue of variants with associated polymerase ribozyme fitness (log ratio)
// return just the number, without any unit appended

- mutation-annotation: "G45C A46C A105C"
  polymerase ribozyme fitness (log ratio): -5.01
- mutation-annotation: "A26C C53U C56G"
  polymerase ribozyme fitness (log ratio): -5.02

Now for a further variant.
Dear colleague, I am looking for the recorded polymerase ribozyme fitness (log ratio) of the following variant: G107A A119G
-4.92
